Values from the Deep4Chem optical property database

# TEST DETAILS: solvent given as SMILES
# ASSAY CONDITIONS: in C1CCCCC1

QUERY SMILES: CC(=O)c1c2c(cc3c(N(C)C)cccc13)CCC2
absorption maximum / nm: 314
//
QUERY SMILES: C[Si](C)(C)c1ccc(C#N)c2ccccc12
absorption maximum / nm: 315
//
QUERY SMILES: CC(C)c1cc(C(C)C)c(B2c3cc(-n4c5ccc(C(C)(C)C)cc5c5cc(C(C)(C)C)ccc54)ccc3N(c3ccccc3)c3ccc(-n4c5ccc(C(C)(C)C)cc5c5cc(C(C)(C)C)ccc54)cc32)c(C(C)C)c1
absorption maximum / nm: 410.54
//
QUERY SMILES: COC(=O)c1ccc(C#Cc2ccccc2)cc1
absorption maximum / nm: 316.6
//
QUERY SMILES: CC(C)[Si]1(C(C)C)c2cc(C=C(C#N)C#N)ccc2-c2ccc(N(c3ccccc3)c3ccccc3)cc21
absorption maximum / nm: 484
//
QUERY SMILES: Nc1ccc2c(c1)-c1ccccc1C2=O
absorption maximum / nm: 386
//
QUERY SMILES: B1C=Cc2ccc3ccccc3c2N1
absorption maximum / nm: 351

###

Listed here: items and their measured absorption maximum.
# TEST DETAILS: solvent given as SMILES
# ASSAY CONDITIONS: in CC#N

QUERY SMILES: COc1nc(Cl)nc(Nc2ccc3c4c(cccc24)C(=O)c2ccccc2-3)n1
absorption maximum [nm]: 407
--
QUERY SMILES: CCNc1cc2c(cc1C)C(c1ccccc1C(=O)O)=C1CCCC(/C=C/C3=[N+](C)c4ccccc4C3(C)C)=C1O2
absorption maximum [nm]: 696
--
QUERY SMILES: COc1ccc(O)c(-c2[nH]c(=O)n3c2-c2ccccc2C3=O)c1
absorption maximum [nm]: 395
--
QUERY SMILES: Nc1ccc(/C=C/c2ccc3ccccc3c2)cc1
absorption maximum [nm]: 348
--
QUERY SMILES: CNc1ccc2c(c1)-c1ccccc1C2=O
absorption maximum [nm]: 424
--
QUERY SMILES: CCOC(=O)/C=C/c1ccc(N(C)C)cc1
absorption maximum [nm]: 363

###

# TEST DETAILS: solvent given as SMILES
# ASSAY CONDITIONS: in CO
Here, each record is paired with measured absorption maximum data.

COMPOUND: C/C(=N\Nc1ccc(C#N)cc1)c1ccccn1
UNIT INFO: nm
absorption maximum: 364
//
COMPOUND: CS1(C)C(/C=C/C2=C(c3ccc(C(=O)O)cc3)C(=C/C=C3/N(CCCCS(=O)(=O)[O-])c4ccccc4S3(C)C)/CCC2)=[N+](CCCCS(=O)(=O)[O-])c2ccccc21
UNIT INFO: nm
absorption maximum: 800
//
COMPOUND: N#CC(C#N)=C(/C=C/c1cn(-c2ccccc2)nc1-c1ccccc1)c1ccccc1
UNIT INFO: nm
absorption maximum: 397
//
COMPOUND: O=[N+]([O-])c1ccc(NCCNCc2c3ccccc3cc3ccccc23)c([N+](=O)[O-])c1
UNIT INFO: nm
absorption maximum: 348
//
COMPOUND: CC(C)(C)c1cc2ccc3cc(C(C)(C)C)cc4c3c2c(c1)c(=O)n1c4nc2c3cc(C(C)(C)C)cc4ccc5cc(C(C)(C)C)cc(c5c43)c21
UNIT INFO: nm
absorption maximum: 382
//
COMPOUND: CN(C)c1nc(N(C)C)c2nc(C#N)n(Cc3ccccc3)c2n1
UNIT INFO: nm
absorption maximum: 342
//
COMPOUND: F[B-]1(F)n2c(-c3ccccc3)cnc2-c2cccc[n+]21
UNIT INFO: nm
absorption maximum: 382
//
COMPOUND: COc1cc(OC)c2ccc(=O)oc2c1
UNIT INFO: nm
absorption maximum: 324
//
COMPOUND: O=C1NC(=O)/C(=C\c2ccccc2O)S1
UNIT INFO: nm
absorption maximum: 352
//
COMPOUND: CCC1=C(C)C(=O)n2c1cc1c(C)c(CC)c(C)n1c2=O
UNIT INFO: nm
absorption maximum: 428
//
COMPOUND: C#CCN1C(=O)/C(=C/c2cc(OC(C)C)ccc2OC(C)C)N=C1C
UNIT INFO: nm
absorption maximum: 398
//
COMPOUND: Cc1cc(C)n2c1C=C1c3ccccc3C(c3c[nH]c4ccccc34)=[N+]1[B-]2(F)F
UNIT INFO: nm
absorption maximum: 579
//
COMPOUND: Cc1ccc(C2=C3C=CC(/C=C/c4ccccc4)=[N+]3[B-](F)(F)n3c(Cl)ccc32)cc1
UNIT INFO: nm
absorption maximum: 564
//
COMPOUND: CCN(CC)c1ccc2cc(/C=C(\C#N)c3nc4ccccc4o3)c(=O)oc2c1
UNIT INFO: nm
absorption maximum: 509
//
COMPOUND: O=C1c2ccccc2-c2c(-c3ccccc3O)[nH]c(=O)n21
UNIT INFO: nm
absorption maximum: 396
//
COMPOUND: O=[N+]([O-])c1ccc[nH]1
UNIT INFO: nm
absorption maximum: 336
//
COMPOUND: CN(C)c1ccc(C#Cc2ccc(C=O)cc2)cc1
UNIT INFO: nm
absorption maximum: 380.5
//
COMPOUND: COC(=O)C(NC(=O)OC(C)(C)C)c1ccc2oc(-c3cc(OC)ccc3OC)nc2c1 (stereo not given)
UNIT INFO: nm
absorption maximum: 337
//
COMPOUND: CC[n+]1c(/C=C/c2c([O-])ccc3ccc(=O)oc23)sc2ccccc21
UNIT INFO: nm
absorption maximum: 519.07
//
COMPOUND: Nc1ccc(C#Cc2ccc3ccc4ccc(C#Cc5ccc(NS(=O)(=O)c6ccc([N+](=O)[O-])cc6[N+](=O)[O-])cc5)c5ccc2c3c45)cc1
UNIT INFO: nm
absorption maximum: 406

###

Listed compounds paired with reported absorption maximum
# TEST DETAILS: solvent given as SMILES
# ASSAY CONDITIONS: in ClCCl
ASSAY METRIC: absorption maximum (nm)

QUERY SMILES: N#CC(C#N)=C(/C=C/c1cn(-c2ccccc2)nc1-c1ccccc1)c1ccccc1
UNIT INFO: nm
MEASURED RESULT: 403

QUERY SMILES: Cc1cccc2nc(-c3cc(=O)c(OCc4ccccc4)co3)c(NC3CCCCC3)n12
UNIT INFO: nm
MEASURED RESULT: 352

QUERY SMILES: CCCCCCOc1cc(N(CC)CC)ccc1/C=C/C(=C(C#N)C#N)c1ccc2c(c1)c1ccccc1n2CC
UNIT INFO: nm
MEASURED RESULT: 504

QUERY SMILES: CC(=O)c1c2c(cc3c(N(C)C)cccc13)CCC2
UNIT INFO: nm
MEASURED RESULT: 334

QUERY SMILES: N#Cc1ccc(/C2=C3N=C(C(c4ccccc4)=C/3c3ccccc3)/C(c3ccc(C#N)cc3)=c3\[nH]/c(c(-c4ccccc4)c3-c3ccccc3)=C(/c3ccc(C#N)cc3)C3=N/C(=C(/c4ccc(C#N)cc4)c4[nH]c2c(-c2ccccc2)c4-c2ccccc2)C(c2ccccc2)=C3c2ccccc2)cc1
UNIT INFO: nm
MEASURED RESULT: 704

QUERY SMILES: FC(F)(F)c1ccc(-c2ccc(-c3cc(-c4ccccn4)nc(-c4ccccn4)c3)cc2)cc1
UNIT INFO: nm
MEASURED RESULT: 289

QUERY SMILES: C(=C\c1cc(/C=C/c2ccc(N(c3ccccc3)c3ccccc3)cc2)nc(/C=C/c2ccc(N(c3ccccc3)c3ccccc3)cc2)n1)/c1ccc(N(c2ccccc2)c2ccccc2)cc1
UNIT INFO: nm
MEASURED RESULT: 415

QUERY SMILES: CC(C)[Si](C#Cc1c2ccccc2c(C#C[Si](C(C)C)(C(C)C)C(C)C)c2nc3cc4c(cc3nc12)C1c2ccccc2C4c2ccccc21)(C(C)C)C(C)C
UNIT INFO: nm
MEASURED RESULT: 562

QUERY SMILES: CC[n+]1c(C=C2C(=O)C(C=C3N(C)c4ccc(Cl)cc4C3(C)C)=C2[O-])[se]c2ccccc21
UNIT INFO: nm
MEASURED RESULT: 659

QUERY SMILES: CCCCCCN1C(=O)c2cccc3c(-c4ccc(-c5cc(-c6ccccc6)n(-c6ccccc6)n5)s4)ccc(c23)C1=O
UNIT INFO: nm
MEASURED RESULT: 400

QUERY SMILES: CCCCCCCCC1(CCCCCCCC)c2ccccc2-c2ccc(N(c3ccc(-n4c5ccccc5c5ccccc54)cc3)c3ccc4c(c3)C(CCCCCCCC)(CCCCCCCC)c3ccccc3-4)cc21
UNIT INFO: nm
MEASURED RESULT: 348

QUERY SMILES: N#CC(C#N)=Cc1ccc2c(c1)c1ccccc1n2-c1cc2ccccc2c2ccccc12
UNIT INFO: nm
MEASURED RESULT: 406

QUERY SMILES: CC(C)(C)c1ccc2c(c1)c1ncncc1c1c3ccccc3sc21
UNIT INFO: nm
MEASURED RESULT: 377

QUERY SMILES: CCOC(=O)c1csc2[n+]1[B-](F)(F)OC(c1ccc(N(C)C)cc1)=N2
UNIT INFO: nm
MEASURED RESULT: 412

QUERY SMILES: Cc1cc(O)c(C(=O)/C=C/c2ccccc2[N+](=O)[O-])c(=O)o1
UNIT INFO: nm
MEASURED RESULT: 365
